- TARGET_DESC: T1, N-terminally FLAG-tagged mouse Ang2 (HEK293T conditioned medium) (mouse, UniProt O35608 19-496)
- T1 construct: may be a nucleotide entry; also called mAng2; FLAG-mAng2
- T1 sequence: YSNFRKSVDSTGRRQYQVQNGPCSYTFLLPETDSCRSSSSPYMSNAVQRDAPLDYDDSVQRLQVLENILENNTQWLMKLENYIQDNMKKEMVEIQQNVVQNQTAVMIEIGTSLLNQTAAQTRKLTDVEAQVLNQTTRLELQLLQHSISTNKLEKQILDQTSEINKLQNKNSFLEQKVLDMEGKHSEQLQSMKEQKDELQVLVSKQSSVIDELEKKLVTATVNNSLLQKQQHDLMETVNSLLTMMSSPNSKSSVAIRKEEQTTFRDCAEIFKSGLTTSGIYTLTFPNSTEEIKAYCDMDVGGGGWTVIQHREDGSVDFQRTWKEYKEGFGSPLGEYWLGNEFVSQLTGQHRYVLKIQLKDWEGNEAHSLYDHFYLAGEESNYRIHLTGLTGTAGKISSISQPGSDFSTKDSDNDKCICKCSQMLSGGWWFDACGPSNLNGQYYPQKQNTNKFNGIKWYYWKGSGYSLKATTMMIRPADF
- ASSAY_SUMMARY: competition ELISA, FLAG-mAng2 on coated mTie2-Fc
- Procedure: In brief, 2 μg/mL of recombinant mouse Tie2-Fc or cyno Tie2-Fc is coated overnight at 4° C. in a 96-well MaxiSorp plate (Nunc, Wiesbaden, Germany). Coated wells are blocked with a 1% casein solution.
Each entry below carries its recorded IC50.

# BINDER, RESULT_UNIT, IC50
data = [
    ("VHH 13A02 (VHH, also called 013A02; not shown: C-terminal c-myc tag and His6 tag) VHH: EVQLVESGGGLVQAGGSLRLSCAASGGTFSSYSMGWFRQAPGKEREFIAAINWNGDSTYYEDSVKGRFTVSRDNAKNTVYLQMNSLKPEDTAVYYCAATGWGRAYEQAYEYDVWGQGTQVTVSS", "nM", 6.1),
    ("VHH 25F01 (VHH, also called 025F01; not shown: C-terminal c-myc tag and His6 tag) VHH: EVQLVESGGGLVQAGGSLRLSCAVSGLPFDDYVIGWFRQAPGKEREGVSCISSSDGSTYYADSVKGRFTISSDNAKNTVYLQMNSLKPEDTAAYYCAAGGPRINIATMTCSHDEYEYDYWGQGTQVTVSS", "nM", 13.3),
    ("VHH 22C07 (VHH, also called 022C07; not shown: C-terminal c-myc tag and His6 tag) VHH: EVQLVESGGGLVQAGGSLRLSCAASGFTFDDYAIGWFRQAPGKEREGVSCISSSDGSTYYADSVKGRFTISSDNAKNTVYLQMNSLKPEDTAVYYCAADFIISSKRLCLDLFGSRGQGTQVTVSS", "nM", 13.6),
    ("VHH 10C06 (VHH, also called 010C06; not shown: C-terminal c-myc tag and His6 tag) VHH: EVQLVESGGGLVQAGGSLRLSCVASGFTFDDYAIGWFRQAPGKEREGVSCISSSDGSTYYADSVKGRFTISGDNAKNTVYLQMNSLKPEDTAVYYCAAGITPCSDYTQTYEYDVWGQGTQVTVSS", "nM", 45.2),
]

These data points were gathered from patent US20230203146A1.
